test: Follow-up exploratory clinical study: plasma pharmacokinetics; assay type: in vivo, human; details: read-out: Cmax,1, geometric mean (CV%); plasma, follow-up study, acute green tea
This section presents compounds with their documented Cmax values.
Numeric answer only, unit nM assumed.

| compound | Cmax / nM |
| --- | --- |
| O=C(c1ccc(OCCN2CCCCC2)cc1)c1c(-c2ccc(O)cc2)sc2cc(O[C@@H]3O[C@H](C(=O)O)[C@@H](O)[C@H](O)[C@H]3O)ccc12 [Raloxifene 6‐glucuronide, raloxifene 6‐glucuronide] | 6.85 |

Turning to the following compound.
Item under review: O=C(c1ccc(OCCN2CCCCC2)cc1)c1c(-c2ccc(O[C@@H]3O[C@H](C(=O)O)[C@@H](O)[C@H](O)[C@H]3O)cc2)sc2cc(O)ccc12 [Raloxifene 4′‐glucuronide, raloxifene 4′‐glucuronide] . Reported Cmax? 75

* * *

type: in vivo, human; settings: both, human, plasma, oral, geometric mean terminal half‐life, unchanged upon acute and chronic green tea administration
property.name: half-life

Item under review: O=C(c1ccc(OCCN2CCCCC2)cc1)c1c(-c2ccc(O)cc2)sc2cc(O)ccc12 [Raloxifene, raloxifene, reference compound] . Reported half-life? ~24 h

* * *

experiment: Follow-up exploratory clinical study: plasma pharmacokinetics; type: in vivo, human; conditions: both, human, plasma, oral
property.name: Tmax (h)
Numeric answer only, unit h assumed.

Item under review: O=C(c1ccc(OCCN2CCCCC2)cc1)c1c(-c2ccc(O)cc2)sc2cc(O)ccc12 [Raloxifene, raloxifene, reference compound] . Reported Tmax? 1

* * *

This section presents compounds with their documented Cmax values.
test: Follow-up exploratory clinical study: plasma pharmacokinetics; format: in vivo, human; conditions: read-out: Cmax,1, geometric mean (CV%); plasma, follow-up study, baseline
Numeric answer only, unit nM assumed.

| compound | uom | quantitative.readout |
| --- | --- | --- |
| O=C(c1ccc(OCCN2CCCCC2)cc1)c1c(-c2ccc(O)cc2)sc2cc(O[C@@H]3O[C@H](C(=O)O)[C@@H](O)[C@H](O)[C@H]3O)ccc12 [Raloxifene 6‐glucuronide, raloxifene 6‐glucuronide] | nM | 9.39 |

Turning to the following compound.
Item under review: O=C(c1ccc(OCCN2CCCCC2)cc1)c1c(-c2ccc(O[C@@H]3O[C@H](C(=O)O)[C@@H](O)[C@H](O)[C@H]3O)cc2)sc2cc(O)ccc12 [Raloxifene 4′‐glucuronide, raloxifene 4′‐glucuronide] . Reported Cmax? 94.4

* * *

experiment: Follow-up exploratory clinical study: plasma pharmacokinetics; format: in vivo, human; conditions: both, human, plasma, oral
property.name: Cmax (nM)
Numeric answer only, unit nM assumed.

Item under review: O=C(c1ccc(OCCN2CCCCC2)cc1)c1c(-c2ccc(O)cc2)sc2cc(O)ccc12 [Raloxifene, raloxifene, reference compound] . Reported Cmax? 0.28

* * *

experiment: Follow-up exploratory clinical study: plasma pharmacokinetics; type: in vivo, human; details: both, human, plasma, oral, AUC0–48h, geometric mean (CV%), plasma, follow-up study, acute green tea
property.name: AUC(0-t) (nM·h)
Numeric answer only, unit nM·h assumed.

Item under review: O=C(c1ccc(OCCN2CCCCC2)cc1)c1c(-c2ccc(O)cc2)sc2cc(O)ccc12 [Raloxifene, raloxifene, reference compound] . Reported AUC(0-t)? 7.46

* * *

test: Follow-up exploratory clinical study: plasma pharmacokinetics; format: in vivo, human; conditions: both, human, plasma, oral, 60 mg, AUC0–48h, geometric mean (CV%), plasma, follow-up study, six healthy adults, baseline
property.name: AUC(0-t)

Item under review: O=C(c1ccc(OCCN2CCCCC2)cc1)c1c(-c2ccc(O)cc2)sc2cc(O)ccc12 [Raloxifene, raloxifene, reference compound] . Reported AUC(0-t)? 8.25 nM·h
